Reported PBM binding z-score values are given for each entry in this list.
tested on: VDR:RXRa (NR concentration 270 nM, RXRa partner concentration 90 nM); experiment: PBM binding z-score (relative to random genomic background probes); higher = stronger binding; sequences stand for … in GC…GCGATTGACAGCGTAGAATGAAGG
Output spec: single numeric token, no unit.

Use the examples below as a reference point.
• AATACAGGGTCATCGTAGGCCGGAGTACGCACAG = 4.89
• CCTAGTTGGTCAGGAGGTCACACCCCGGATATGA = 3.82
• GGAACGAGAGCAAAGTTGATAGCATCTGTCGACG = -0.413
• GTTCGGAGGACAAGGTCAGAGCTTTGTCCGTAGA = 1.42
• AGAACGAGGGCCCGCTGAGTTGATAGCAGAGTAG = -1.03

[in] # value lookup — system VDR:RXRa (NR concentration 270 nM, RXRa partner concentration 90 nM), readout PBM binding z-score, item CGTCAAAGTTCAAGGTAACGTGACAGAAAGCAGC
[out] 3.71

[in] # value lookup — system VDR:RXRa (NR concentration 270 nM, RXRa partner concentration 90 nM), readout PBM binding z-score, item AGTCAAAGTTCATCTAGGTAACGTATGATATGCT
[out] 4.91

[in] # returns recorded PBM binding z-score (system: VDR:RXRa (NR concentration 270 nM, RXRa partner concentration 90 nM)) for CAAACTAGGTCACAGACGTCAAAGTCCGTGCGTA
[out] 3.26

[in] Observed PBM binding z-score on VDR:RXRa (NR concentration 270 nM, RXRa partner concentration 90 nM) for ACTAGTTGGTCAGCTTAGGTCACACACAATTCGG , please.
[out] 1.82

[in] Find PBM binding z-score (VDR:RXRa (NR concentration 270 nM, RXRa partner concentration 90 nM)) for the entry AGAATGAGCTTATACGTAGATCAGGGAAGAAAGT
[out] -0.451
